# Test system: NIH3T3
# assay_info: GSK_TCAKS: pIC50 NIH 3T3 cell line viability assay using luminiscence. Tissue culture surface treated assay plates (1536-well) were used. […] The 100% cells survival control was determined exposing the host-cells to a 0.5% DMSO concentration, whereas the 100% toxicity control was achieved by seeding the cells in presence of Amphotericin B at 50uM. Plates were incubated for four days at 37C, 5% CO2. The assay readout was developed by addition of 5uL of CellTiter-Glo Reagent following the manufacturer's instructions. Luminiscence was measured using a ViewLux.
# Type: functional, cell-based
# setup_conditions: Mus musculus, NIH3T3, 96 h
recorded_endpoint: pIC50
Expect pIC50 as a plain number equal to -log10 of the molar concentration.

Look at this compound and give its reported pIC50. Cc1c([N+](=O)[O-])c(C(=O)Nc2sc3c(c2C#N)CCC(C)C3)nn1C (stereo not given)
4.90

Look at this compound and give its reported pIC50. CN1CCN(c2nc(-c3ccc(Cl)cc3)c3c(N)n(C)nc3n2)CC1
4.60

Look at this compound and give its reported pIC50. CCN(CC)S(=O)(=O)c1ccc(Cn2nc(C(=O)Nc3ccncn3)c3ccccc32)cc1
4.40

Look at this compound and give its reported pIC50. COc1ccc(NS(=O)(=O)c2cc(NC(=O)Cc3ccc(C)cc3)ccc2N2CCOCC2)cc1
4.60

Look at this compound and give its reported pIC50. Cc1sc(C)c(C(F)(F)F)c1CNCCCNc1cc(=O)c2ccccc2[nH]1
5.00

====

I'd be grateful if you could share measured IC50 for these entries.
# measured_on: Sterol 14-alpha demethylase (Trypanosoma cruzi (strain CL Brener))
# assay_info: GSK_TCAKS: pIC50 CYP51 from Trypanosoma cruzi.
Report as a plain number; the unit µM is understood.

Look at this molecule and give its reported IC50. c1ccc2c(CCOc3nccnc3-c3ccncc3)c[nH]c2c1
0.0631

Look at this molecule and give its reported IC50. O=S(=O)(NCC(c1cccnc1)N1CCN(c2ccccc2F)CC1)c1ccc(F)cc1 (stereo not given)
0.0794

Look at this molecule and give its reported IC50. O=C(CN(Cc1ccccn1)Cc1ccccn1)NCc1ccc2c(c1)OCO2
100

Look at this molecule and give its reported IC50. CCN(CC)c1ccc(S(=O)(=O)N(CC)CC)c2nonc12
25.1

Look at this molecule and give its reported IC50. CN(Cc1cccnc1)Cc1ccc(N2CCN(C(=O)C3(c4ccc(Cl)cc4)CC3)CC2)nc1
0.158

====

I'd be grateful if you could share measured IC50 for these entries.
# Tested on: Trypanosoma cruzi
# assay_info: GSK_TCAKS: pIC50 Trypanosoma cruzi Imaging: Infected Cells. […] Cells were then washed once with PBS before infection. T. cruzi trypomastigotes, collected at days 5 to 8 after infection from LLC-MK2 parasite infected cultures, were allowed to swim out for 4h at 37C from a centrifuged pellet (2,500 rpm/10 min/room temperature). Trypomastigotes were then collected and counted in a CASY Cell Counter. Trypomastigotes, in supplemented DMEM, were added to H9c2 cultures in a multiplicity of infection of 1 and incubated for 18 h. Cells were washed once with PBS before incubation of the infected H9c2 monolayer with trypsin (Life-Technologies) to detach cells from the flask. Cells were counted in a CASY Cell Counter using a 150 um capillary and their density set at 5 * 10^4 cells per mL in supplemented assay DMEM. Infected H9c2 were dispensed into 384-well poly-lysine coated assay plates at 50uL per well using a Multidrop Combi dispenser. After seeding them, the plates were incubated at 37C, 5% CO2 for 72h. Cultures were then fixed and stained by addition of 50 uL of a solution containing 8% formaldehyde and 4 uM DRAQ5 DNA dye (BioStatus, UK) per well. […] Five images were collected per well for reliable statistical analysis. Automated image analysis was performed with a script developed on Acapella High Content Imaging and Analysis Software (PerkinElmer). Output: percentage of infected cells per well as a second infection marker.
# Format: functional, organism-based, Rattus norvegicus
# setup_conditions: H9c2, 4 h
Report as a plain number; the unit nM is understood.

Query the reported IC50 for Trypanosoma cruzi; item: COCCn1cnc2cc(NC(=O)C3CCCCC3)cc(C(=O)N3CCc4sccc4C3)c21
31600

Query the reported IC50 for Trypanosoma cruzi; item: CC(C)(C)C(=O)Nc1cc(C2CC2)nn1-c1nc2c(c(=O)[nH]1)CCCC2
501

Query the reported IC50 for Trypanosoma cruzi; item: COC(=O)c1ccc(-c2cnc3ccc(NCc4ccccn4)nn23)cc1
7940

Query the reported IC50 for Trypanosoma cruzi; item: COc1ccc(S(=O)(=O)Nc2ccc(C(=O)Nc3nc(-c4ccccn4)cs3)cc2)cc1
794

Query the reported IC50 for Trypanosoma cruzi; item: COc1ccc2nccc([C@H](O)CN3CC[C@H](NC(=O)c4ccc(Br)cc4)[C@@H](O)C3)c2n1
1580

Query the reported IC50 for Trypanosoma cruzi; item: COc1ccc([N+](=O)[O-])cc1NC(=O)c1cc(Cl)ccc1O
15800

Query the reported IC50 for Trypanosoma cruzi; item: Cc1cc(Br)cc(C(=O)c2c(C(C)C)c(=O)[nH]c(=O)n2Cc2ccnc(N)c2)c1
316

Query the reported IC50 for Trypanosoma cruzi; item: CC1=NN(C(=O)CCn2cnc([N+](=O)[O-])n2)C(O)(C(F)(F)F)C1 (stereo not given)
6310

Query the reported IC50 for Trypanosoma cruzi; item: Cc1cc2cc(CNc3ccc4c(c3)OCO4)c(=O)n(CCO)c2cc1C
251

====

# assay_info: GSK_TCAKS: pIC50 HepG2 human cell line viability assay using luminiscence. […] Seeding density was checked to ensure that new mono-layers were not more than 50% confluent at the time of harvesting. Cell suspension was added to 500 mL of the same medium at a final density of 1.2 * 10^5 cells/mL. This cell suspension was dispensed (25 uL, 3000 cells per well) into 384-well clear-bottom plates using a Multidrop Combi dispenser. Prior to addition of the cell suspension, the screening compounds (250 nL) were pre-dispensed into the plates with an Echo liquid handler. Plates were incubated for 48 h at 37C, 5% CO2. After incubation, plates equilibrated at room temperature for 30 min before proceeding to develop the luminescent signal. The signal developer, CellTiter-Glo Reagent, was allowed to equilibrate at room temperature for 30 min and added to the plates (25uL per well) using a Multidrop Combi dispenser. Plates were left for 10 min at room temperature for stabilization and then read using a ViewLux.
# Assay type: toxicity, cell-based
I'd be grateful if you could share measured IC50 at 48 h for these entries.
Report as a plain number; the unit µM is understood.

Look at this molecule and give its reported IC50 at 48 h. CN(C)Cc1ccc(N2CCC(NS(=O)(=O)c3ccc(Cl)cc3)CC2)cc1
50.1

Look at this molecule and give its reported IC50 at 48 h. Cc1ccc(Nc2nc(-c3ccccn3)cc(N3CCCC(O)C3)n2)cc1 (stereo not given)
39.8

Look at this molecule and give its reported IC50 at 48 h. Cc1ccc2c(c1)SC(C(=O)Nc1nnc(-c3ccccn3)[nH]1)C2 (stereo not given)
25.1

Look at this molecule and give its reported IC50 at 48 h. COc1cc(Nc2nccc(Nc3onc(C)c3C)n2)cc(S(=O)(=O)C2CCOCC2)c1
31.6

====

# measured_on: Sterol 14-alpha demethylase (Trypanosoma cruzi (strain CL Brener), UniProt Q7Z1V1)
# Sequence (Q7Z1V1 whole entry): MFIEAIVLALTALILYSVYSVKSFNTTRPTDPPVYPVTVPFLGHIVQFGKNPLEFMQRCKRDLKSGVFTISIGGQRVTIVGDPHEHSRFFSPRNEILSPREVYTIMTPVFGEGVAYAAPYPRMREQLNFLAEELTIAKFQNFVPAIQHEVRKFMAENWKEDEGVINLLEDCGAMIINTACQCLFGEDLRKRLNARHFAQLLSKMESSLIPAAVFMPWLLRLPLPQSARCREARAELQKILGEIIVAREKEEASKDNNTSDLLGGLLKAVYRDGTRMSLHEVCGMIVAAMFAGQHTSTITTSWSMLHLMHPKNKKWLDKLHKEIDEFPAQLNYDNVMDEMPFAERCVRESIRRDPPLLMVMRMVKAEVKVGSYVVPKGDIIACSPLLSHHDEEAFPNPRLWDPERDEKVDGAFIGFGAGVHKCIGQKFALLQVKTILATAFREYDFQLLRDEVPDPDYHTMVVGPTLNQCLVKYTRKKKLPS
# assay_info: GSK_TCAKS: pIC50 CYP51 from Trypanosoma cruzi.
recorded_endpoint: pIC50
Expect pIC50 as a plain number equal to -log10 of the molar concentration.

Query the reported pIC50 for Sterol 14-alpha demethylase (Trypanosoma cruzi (strain CL Brener), UniProt Q7Z1V1); item: COc1ccc(-c2cnc(C)o2)cc1S(=O)(=O)Nc1ccc(C)cc1C
4.60

Query the reported pIC50 for Sterol 14-alpha demethylase (Trypanosoma cruzi (strain CL Brener), UniProt Q7Z1V1); item: CN(C)S(=O)(=O)c1cccc(CSc2nnc(-c3ccc4c(c3)OCO4)o2)c1
4.90

Query the reported pIC50 for Sterol 14-alpha demethylase (Trypanosoma cruzi (strain CL Brener), UniProt Q7Z1V1); item: CC(=O)Nc1ccc(-c2csc(NC(=O)c3ccc([N+](=O)[O-])s3)n2)cc1
5.20

Query the reported pIC50 for Sterol 14-alpha demethylase (Trypanosoma cruzi (strain CL Brener), UniProt Q7Z1V1); item: c1ccc(CNc2cccc3ccncc23)cc1
7.00

Query the reported pIC50 for Sterol 14-alpha demethylase (Trypanosoma cruzi (strain CL Brener), UniProt Q7Z1V1); item: O=C1CN(C(=O)c2cccc(Nc3ncc(-c4ccc5c(c4)OCO5)cn3)c2)CCN1
4.60

Query the reported pIC50 for Sterol 14-alpha demethylase (Trypanosoma cruzi (strain CL Brener), UniProt Q7Z1V1); item: Cc1cc(Br)sc1CNCCCNc1cc(=O)c2ccccc2[nH]1
4.20

Query the reported pIC50 for Sterol 14-alpha demethylase (Trypanosoma cruzi (strain CL Brener), UniProt Q7Z1V1); item: O=C(CN(Cc1ccccn1)Cc1ccccn1)NCc1csc(-c2cccs2)n1
4.40
